Measured normalized growth by item
experiment: chemical genetic growth profiling, strain panel (AID 1159580);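 note: tested at 20 µM; growth read once vehicle control cultures reached saturation at 30 °C; 1 = growth at the plate median or of vehicle wells; lower values mean less growth of the strain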; details: S. cerevisiae deletion strains, growth OD, locus YOR231W, strain MKK1, hits give low values
Out of some 5,500 compounds screened, about 2,000 (36%) were called active. Not shown: some 18% with an inconclusive outcome. The list shows a part of the results.
Answer with a bare number; do not write a unit.

Example entries begin here.
[[record]]
compound = "Nc1ccc(N=Nc2ccccc2)c(N)n1"
recorded_endpoint = "normalized growth"
result = 0.942

[[record]]
compound = "O=C(NNc1ccc(I)cc1)c1cc(Cl)cc(Cl)c1"
recorded_endpoint = "normalized growth"
result = 0.884

[[record]]
compound = "COC(=O)C1=CCCN(C)C1"
recorded_endpoint = "normalized growth"
result = 0.994

[[record]]
compound = "CC(C)COCC(CN(Cc1ccccc1)c1ccccc1)N1CCCC1 (stereo unspecified)"
recorded_endpoint = "normalized growth"
result = 0.982

[[record]]
compound = "O=C1CC2OCC=C3CN4CC[C@]56c7ccccc7N1C5[C@H]2[C@H]3CC46 (stereo partly specified)"
recorded_endpoint = "normalized growth"
result = 0.955


Just so you know, measured normalized growth for O=[N+]([O-])c1ccc2c(c1)NC(c1ccc([N+](=O)[O-])s1)O2 (stereo unspecified) came out at 0.101

* * *

experiment: chemical genetic growth profiling, strain panel (AID 1159580);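 note: tested at 20 µM; growth read once vehicle control cultures reached saturation at 30 °C; 1 = growth at the plate median or of vehicle wells; lower values mean less growth of the strain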; details: S. cerevisiae deletion strains, growth OD, locus YMR129W
The campaign covered roughly 5,500 compounds. About 2,000 (36%) were called active. About 18% were inconclusive and are not listed. Cut-off read from the data, not from the text of the source: active = normalized growth mostly below about 0.91 (no sharp cut-off); inconclusive = no clear call, values can overlap the other calls; inactive = mostly above about 0.92. The list shows a part of the results.
Your answer must be one of the following: active, inactive

A selection of reference data follows.
[[record]]
compound = "O=C(O)CN(CC(=O)O)Cc1cc2c(-c3ccccc3C(=O)O)c3cc(CN(CC(=O)O)CC(=O)O)c(=O)cc-3oc2cc1O"
qualitative_label = "inactive"

[[record]]
compound = "Cc1cc(-c2ccccc2)nnc1NCCN1CCOCC1"
qualitative_label = "inactive"

[[record]]
compound = "COc1ccc(CCN2CCC(Nc3nc4ccccc4n3Cc3ccc(F)cc3)CC2)cc1"
qualitative_label = "inactive"

[[record]]
compound = "CCC(C)(C)C(=O)O[C@H]1C[C@@H](C)C=C2C=C[C@H](C)[C@H](CC[C@@H]3C[C@@H](O)CC(=O)O3)[C@H]21"
qualitative_label = "inactive"

[[record]]
compound = "C[N+]1(C)C2CC(OC(=O)[C@@H](CO)c3ccccc3)CC1C1OC12 (some centres not stated)"
qualitative_label = "inactive"

[[record]]
compound = "C[C@H]1CC[C@@H](C(C)(C)O)CC2=C1CC[C@@H]2C"
qualitative_label = "inactive"

[[record]]
compound = "C=CCCCCCCCCCCCC(O)CC(O)COC(C)=O (configuration not stated) (tested in a mixture with another compound)"
qualitative_label = "inactive"

[[record]]
compound = "CCOC(=O)c1ccc(O)cc1"
qualitative_label = "inactive"


Status in this test for C=C1CCC(OC(C)=O)/C(C)=C/C[C@@H]2[C@@H]1CC2(C)C (some centres not stated) ? inactive

Status in this test for CC[C@H](C)C(=O)O[C@H]1CCC=C2C=C[C@H](C)C(CCC3C[C@@H](O)CC(=O)O3)[C@H]21 (some centres not stated) ? inactive

Status in this test for C#CCCCCCCCCCCCC(O)CC(O)COC(C)=O (configuration not stated) ? active

Measured values drawn from PubChem BioAssay AID1159580 for this set.
